- Test System: the molecule itself
- Test Details: steric trap, lysoPC/PC
pKd: −log10 of the molar value.

>  <Protein>
Glycophorin A TM domain (SNGpATM) TMD (protein) GERVQLAHHFSEPEITLIIFGVMAGVIGTILLISYGIRRLIKKSPSDVKPLPSPDTDVPLSSVEIENPETSDQ

>  <pKd>
8.22

$$$$
